- tgt: AurA (Homo sapiens)
- Construct: purchased Perkin Elmer (ProfilerPro assay kit 1)
- Sequence (O14965 whole entry): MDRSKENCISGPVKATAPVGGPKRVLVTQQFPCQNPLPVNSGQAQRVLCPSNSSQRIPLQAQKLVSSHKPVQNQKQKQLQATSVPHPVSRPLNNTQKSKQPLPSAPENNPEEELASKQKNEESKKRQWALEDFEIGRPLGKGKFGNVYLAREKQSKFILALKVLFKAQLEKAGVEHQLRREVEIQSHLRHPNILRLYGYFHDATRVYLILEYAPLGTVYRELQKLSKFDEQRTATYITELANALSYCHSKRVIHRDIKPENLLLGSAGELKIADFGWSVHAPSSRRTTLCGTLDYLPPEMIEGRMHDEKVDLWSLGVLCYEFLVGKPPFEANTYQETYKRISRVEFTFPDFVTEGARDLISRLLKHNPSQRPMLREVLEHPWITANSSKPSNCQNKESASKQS
- protocol details: 26-kinase panel mobility shift assay, single concentration
- Type: biochemical
- settings: read-out: % Inhibition AurA
I'd appreciate it if you could supply inhibition at 100 µM values for the items below.

State the recorded inhibition at 100 µM for this entry: CNc1nccc(-c2c[nH]c(=O)c(N)c2)n1
98%

May I ask what inhibition at 100 µM has been recorded for Nc1ccc[nH]c1=O ?
58%

Look at this compound and give its reported inhibition at 100 µM. Cc1nc(O)c(N)cc1-c1ccncc1
49%

// returns reported inhibition at 100 µM for input Cn1cc(-c2c[nH]c(=O)c(N)c2)cn1
100%

inhibition at 100 µM for Nc1cc(-c2ccnc3ccccc23)c[nH]c1=O ?
62%

I have this compound here, COc1ncc(-c2ccncc2)cc1N , and I need its recorded inhibition at 100 µM.
46%

Entry Nc1cc(-c2ccnc(NC3CC3)n2)c[nH]c1=O : reported inhibition at 100 µM = ?
87%

---

- tgt: PRAK (Homo sapiens, UniProt Q8IW41)
- Construct: purchased Perkin Elmer (ProfilerPro assay kit 1)
- Sequence (Q8IW41 whole entry): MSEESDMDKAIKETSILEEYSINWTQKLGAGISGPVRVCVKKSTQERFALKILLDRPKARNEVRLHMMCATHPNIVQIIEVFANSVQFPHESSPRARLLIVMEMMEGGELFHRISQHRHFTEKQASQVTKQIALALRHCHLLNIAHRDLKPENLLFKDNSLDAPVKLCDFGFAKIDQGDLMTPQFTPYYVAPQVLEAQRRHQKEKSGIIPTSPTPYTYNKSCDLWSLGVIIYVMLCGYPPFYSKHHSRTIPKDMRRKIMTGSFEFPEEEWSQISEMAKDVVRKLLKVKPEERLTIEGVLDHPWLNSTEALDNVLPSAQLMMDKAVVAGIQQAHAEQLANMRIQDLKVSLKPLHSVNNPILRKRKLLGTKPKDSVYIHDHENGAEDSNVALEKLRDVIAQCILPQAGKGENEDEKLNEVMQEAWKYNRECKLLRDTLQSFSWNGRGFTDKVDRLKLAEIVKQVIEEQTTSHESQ
- protocol details: 26-kinase panel mobility shift assay, single concentration
- Assay type: biochemical
- settings: read-out: % Inhibition PRAK
# inhibition at 100 µM >= 20% gives Met, anything below gives Not met

For this molecule, is measured inhibition at 100 µM 20% or higher? Cc1nc(O)c(N)cc1-c1ccncc1
Met

// inclusive: inhibition at 100 µM at least 20%? input: Nc1ccc[nH]c1=O
Not met

Would you say CNc1nccc(-c2c[nH]c(=O)c(N)c2)n1 shows inhibition at 100 µM at minimum 20%?
Met

hey, is inhibition at 100 µM for this one >= 20%? Nc1cc(-c2ccnc(NC3CC3)n2)c[nH]c1=O
Met

Identify whether the reported inhibition at 100 µM of the following molecule is 20% or greater: Cn1cc(-c2c[nH]c(=O)c(N)c2)cn1
Met

Assess whether reported inhibition at 100 µM for COc1ncc(-c2ccncc2)cc1N sits at 20% or higher.
Not met

Exam item: decide whether the reported inhibition at 100 µM for Nc1cc(-c2ccnc3ccccc23)c[nH]c1=O is at least 20%.
Not met

---

- tgt: AKT2 (Homo sapiens)
- Construct: purchased Perkin Elmer ProfilerPro assay kit 1
- Sequence (P31751 whole entry): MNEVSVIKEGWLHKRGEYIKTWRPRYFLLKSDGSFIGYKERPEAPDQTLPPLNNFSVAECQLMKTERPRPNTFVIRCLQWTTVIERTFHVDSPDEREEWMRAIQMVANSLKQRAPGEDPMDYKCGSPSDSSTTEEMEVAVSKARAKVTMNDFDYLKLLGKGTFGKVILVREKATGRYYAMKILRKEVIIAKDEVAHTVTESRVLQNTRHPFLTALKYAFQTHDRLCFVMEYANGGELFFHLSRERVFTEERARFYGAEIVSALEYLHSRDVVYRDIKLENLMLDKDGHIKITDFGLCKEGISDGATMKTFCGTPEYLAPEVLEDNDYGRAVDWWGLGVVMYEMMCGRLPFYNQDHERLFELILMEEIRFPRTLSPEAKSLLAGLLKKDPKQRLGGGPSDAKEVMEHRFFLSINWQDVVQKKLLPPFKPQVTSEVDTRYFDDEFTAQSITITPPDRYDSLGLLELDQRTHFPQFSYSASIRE
- protocol details: 26-kinase panel mobility shift assay, single concentration
- Type: biochemical
- settings: read-out: % Inhibition AKT2
Record form. Attribute: inhibition at 100 µM. Fill in for each entry.
Report the value in % with no unit label.

Could you share what inhibition at 100 µM was measured for COc1cccc(C(=O)Nc2cc(-c3ccncc3)c[nH]c2=O)c1 , tested on AKT2 (Homo sapiens)?
50

Record CNc1nccc(-c2c[nH]c(=O)c(N)c2)n1 : what is its inhibition at 100 µM with AKT2 (Homo sapiens)?
93

What value of inhibition at 100 µM on AKT2 (Homo sapiens) does Cn1cc(-c2c[nH]c(=O)c(N)c2)cn1 have?
97

Notebook: pull reported inhibition at 100 µM for AKT2 (Homo sapiens), entry Nc1ccc[nH]c1=O
77

# value lookup — system AKT2 (Homo sapiens), readout inhibition at 100 µM, item Cc1nc(O)c(N)cc1-c1ccncc1
17

State its inhibition at 100 µM on AKT2 (Homo sapiens): Nc1cc(-c2ccnc(NC3CC3)n2)c[nH]c1=O
18

Please state recorded inhibition at 100 µM (tested on AKT2 (Homo sapiens)) of COc1ncc(-c2ccncc2)cc1N
4

Form entry - test system: AKT2 (Homo sapiens); read-out: inhibition at 100 µM; compound: Nc1cc(-c2ccnc3ccccc23)c[nH]c1=O
9

---

I'd be grateful if you could share measured inhibition at 100 µM for these entries.
- tgt: PKD2 (Homo sapiens)
- Construct: purchased Perkin Elmer (ProfilerPro assay kit 1)
- Sequence (Q9BZL6 1-878): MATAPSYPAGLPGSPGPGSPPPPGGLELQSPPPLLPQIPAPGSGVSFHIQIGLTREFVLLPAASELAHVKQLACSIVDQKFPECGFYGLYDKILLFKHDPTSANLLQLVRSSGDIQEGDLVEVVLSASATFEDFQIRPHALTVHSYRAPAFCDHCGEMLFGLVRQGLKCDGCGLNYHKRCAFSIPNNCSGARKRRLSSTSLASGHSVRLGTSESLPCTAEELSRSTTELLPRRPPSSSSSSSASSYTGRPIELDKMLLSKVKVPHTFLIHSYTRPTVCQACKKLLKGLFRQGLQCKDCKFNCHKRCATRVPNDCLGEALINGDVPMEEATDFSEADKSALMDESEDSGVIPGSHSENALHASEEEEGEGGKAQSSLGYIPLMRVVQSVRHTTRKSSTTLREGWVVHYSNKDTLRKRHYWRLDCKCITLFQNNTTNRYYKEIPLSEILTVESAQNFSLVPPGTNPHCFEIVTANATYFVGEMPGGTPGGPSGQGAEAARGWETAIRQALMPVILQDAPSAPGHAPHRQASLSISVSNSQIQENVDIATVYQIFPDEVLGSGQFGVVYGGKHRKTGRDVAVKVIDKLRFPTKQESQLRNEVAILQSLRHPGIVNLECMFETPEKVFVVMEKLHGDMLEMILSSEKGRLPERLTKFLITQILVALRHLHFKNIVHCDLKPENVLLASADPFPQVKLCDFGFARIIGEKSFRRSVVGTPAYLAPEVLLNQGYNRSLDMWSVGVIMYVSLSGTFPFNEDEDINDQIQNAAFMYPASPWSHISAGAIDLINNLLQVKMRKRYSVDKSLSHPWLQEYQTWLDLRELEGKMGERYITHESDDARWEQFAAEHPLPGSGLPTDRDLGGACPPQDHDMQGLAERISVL
- protocol details: 26-kinase panel mobility shift assay, single concentration
- Assay type: biochemical
- settings: read-out: % Inhibition PKD2
Give your result in % as a bare value.

# query: inhibition at 100 µM of entry CNc1nccc(-c2c[nH]c(=O)c(N)c2)n1
70

Fill in: inhibition at 100 µM of Nc1cc(-c2ccnc3ccccc23)c[nH]c1=O is ___
36

Could you tell me which inhibition at 100 µM is on file for Cc1nc(O)c(N)cc1-c1ccncc1 ?
8

Query (molecule): Nc1cc(-c2ccnc(NC3CC3)n2)c[nH]c1=O ; field requested: inhibition at 100 µM
81

Fill in: inhibition at 100 µM of Nc1ccc[nH]c1=O is ___
10

Requested read-out: inhibition at 100 µM. Entry: Cn1cc(-c2c[nH]c(=O)c(N)c2)cn1
67

Entry under review: COc1ncc(-c2ccncc2)cc1N . Reported inhibition at 100 µM?
26

---

Exercise: state measured Ki for each of the molecules provided.
Please reply with the bare figure in µM and do not write the unit itself.

So what Ki did COc1cccc(C(=O)Nc2cc(-c3ccncc3)c[nH]c2=O)c1 [Compound 17] get with MPS1 (Homo sapiens, UniProt P33981)?
24.8

Reported Ki for MPS1 (Homo sapiens, UniProt P33981), given CN1CCN(c2ccc(C(=O)Nc3cc(-c4ccncc4)c[nH]c3=O)cc2)CC1 [Compound 22] ?
4.8

Which measured Ki belongs to Nc1cc(-c2ccnc3ccccc23)c[nH]c1=O [Compound 6] , tested on MPS1 (Homo sapiens, UniProt P33981)?
30.2

---

- tgt: INSR (Homo sapiens, UniProt P06213)
- Construct: purchased Perkin Elmer (ProfilerPro assay kit 1)
- Sequence (P06213 28-1382): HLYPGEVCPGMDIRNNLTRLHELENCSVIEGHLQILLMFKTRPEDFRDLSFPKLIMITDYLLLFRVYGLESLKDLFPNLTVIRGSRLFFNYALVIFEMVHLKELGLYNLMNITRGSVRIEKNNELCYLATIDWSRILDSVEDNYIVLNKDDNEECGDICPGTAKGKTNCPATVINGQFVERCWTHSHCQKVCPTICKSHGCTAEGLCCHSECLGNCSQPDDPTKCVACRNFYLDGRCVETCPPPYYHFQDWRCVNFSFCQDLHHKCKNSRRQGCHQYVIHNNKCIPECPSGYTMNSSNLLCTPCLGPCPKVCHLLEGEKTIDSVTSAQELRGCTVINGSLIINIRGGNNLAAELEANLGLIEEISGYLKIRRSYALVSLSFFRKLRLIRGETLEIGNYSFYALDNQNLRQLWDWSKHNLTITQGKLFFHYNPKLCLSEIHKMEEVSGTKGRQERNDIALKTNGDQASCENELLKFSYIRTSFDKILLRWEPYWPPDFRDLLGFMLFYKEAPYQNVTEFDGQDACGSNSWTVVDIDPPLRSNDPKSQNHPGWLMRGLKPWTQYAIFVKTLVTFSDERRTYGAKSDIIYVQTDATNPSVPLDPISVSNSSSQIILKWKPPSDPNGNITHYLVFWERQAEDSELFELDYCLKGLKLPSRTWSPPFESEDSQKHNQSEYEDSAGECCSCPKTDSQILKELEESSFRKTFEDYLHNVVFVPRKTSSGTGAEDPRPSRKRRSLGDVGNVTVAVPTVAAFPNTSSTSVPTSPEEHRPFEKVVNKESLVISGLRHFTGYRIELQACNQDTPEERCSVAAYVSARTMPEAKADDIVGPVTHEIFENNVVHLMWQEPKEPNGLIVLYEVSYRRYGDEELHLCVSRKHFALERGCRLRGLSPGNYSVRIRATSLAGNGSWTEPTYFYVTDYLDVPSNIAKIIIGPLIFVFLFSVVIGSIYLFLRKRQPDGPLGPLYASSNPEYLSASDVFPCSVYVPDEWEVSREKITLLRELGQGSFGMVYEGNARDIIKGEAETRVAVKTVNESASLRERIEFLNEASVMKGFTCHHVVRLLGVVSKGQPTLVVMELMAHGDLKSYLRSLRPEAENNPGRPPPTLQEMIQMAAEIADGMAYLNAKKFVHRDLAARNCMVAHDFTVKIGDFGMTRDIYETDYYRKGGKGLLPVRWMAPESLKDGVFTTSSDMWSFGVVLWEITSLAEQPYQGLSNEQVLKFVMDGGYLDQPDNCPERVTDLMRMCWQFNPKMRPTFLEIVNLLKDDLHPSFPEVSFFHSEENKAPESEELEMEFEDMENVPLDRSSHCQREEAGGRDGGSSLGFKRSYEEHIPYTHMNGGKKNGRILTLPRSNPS
- protocol details: 26-kinase panel mobility shift assay, single concentration
- Assay type: biochemical
- settings: read-out: % Inhibition INSR
Kindly state inhibition at 100 µM for each of the entries shown.
Just the number in %, nothing appended.

Bench note: what inhibition at 100 µM did Cn1cc(-c2c[nH]c(=O)c(N)c2)cn1 [Compound 2] show?
25

Given the entry COc1cccc(C(=O)Nc2cc(-c3ccncc3)c[nH]c2=O)c1 [Compound 17] , report its measured inhibition at 100 µM.
21

GET /values?readout=inhibition at 100 µM&item= CNc1nccc(-c2c[nH]c(=O)c(N)c2)n1 [Compound 7]
80

What measured inhibition at 100 µM goes with Cc1nc(O)c(N)cc1-c1ccncc1 [Compound 15] ?
23

Look up inhibition at 100 µM for this compound: Nc1cc(-c2ccnc(NC3CC3)n2)c[nH]c1=O [Compound 8]
27

Please report the recorded inhibition at 100 µM for Nc1cc(-c2ccnc3ccccc23)c[nH]c1=O [Compound 6] .
13

# inhibition at 100 µM lookup, item Nc1ccc[nH]c1=O [Compound 1, 3-aminopyridin-2-one]
2

Would you kindly share the measured inhibition at 100 µM for COc1ncc(-c2ccncc2)cc1N [Compound 5, 6-Methoxy-3,4′-bipyridin-5-amine] ?
6

---

For each record, write down the corresponding inhibition at 100 µM.
- tgt: Erk2 (Homo sapiens, UniProt P28482)
- Construct: purchased Perkin Elmer (ProfilerPro assay kit 1)
- Sequence (P28482 whole entry): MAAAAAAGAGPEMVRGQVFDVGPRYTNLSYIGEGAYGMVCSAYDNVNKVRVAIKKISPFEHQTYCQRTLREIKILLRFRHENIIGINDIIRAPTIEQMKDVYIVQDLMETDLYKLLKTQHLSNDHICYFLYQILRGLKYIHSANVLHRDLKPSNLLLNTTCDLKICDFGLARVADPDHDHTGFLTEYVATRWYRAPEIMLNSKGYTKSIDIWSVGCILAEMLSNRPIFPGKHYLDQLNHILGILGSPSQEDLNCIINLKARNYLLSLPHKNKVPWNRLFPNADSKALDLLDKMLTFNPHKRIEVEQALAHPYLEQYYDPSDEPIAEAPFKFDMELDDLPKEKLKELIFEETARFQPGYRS
- protocol details: 26-kinase panel mobility shift assay, single concentration
- Type: biochemical
- settings: read-out: % Inhibition Erk2
Write down the value, and be sure its unit follows.

Entry under review: COc1ncc(-c2ccncc2)cc1N [Compound 5, 6-Methoxy-3,4′-bipyridin-5-amine] . Reported inhibition at 100 µM?
12%

I would be grateful if you could share the reported inhibition at 100 µM for Nc1cc(-c2ccnc3ccccc23)c[nH]c1=O [Compound 6] .
15%

Report inhibition at 100 µM for Cc1nc(O)c(N)cc1-c1ccncc1 [Compound 15] please.
11%

Any idea what inhibition at 100 µM was measured for Nc1cc(-c2ccnc(NC3CC3)n2)c[nH]c1=O [Compound 8] ?
45%

Name the reported inhibition at 100 µM value associated with the compound Cn1cc(-c2c[nH]c(=O)c(N)c2)cn1 [Compound 2]
68%

Recorded inhibition at 100 µM of Nc1ccc[nH]c1=O [Compound 1, 3-aminopyridin-2-one] , please.
3%

Query: inhibition at 100 µM; subject: CNc1nccc(-c2c[nH]c(=O)c(N)c2)n1 [Compound 7]
53%
